System Name: Ubiquitin carboxyl-terminal hydrolase 7 (Homo sapiens, UniProt Q93009)
Sequence (Q93009 whole entry): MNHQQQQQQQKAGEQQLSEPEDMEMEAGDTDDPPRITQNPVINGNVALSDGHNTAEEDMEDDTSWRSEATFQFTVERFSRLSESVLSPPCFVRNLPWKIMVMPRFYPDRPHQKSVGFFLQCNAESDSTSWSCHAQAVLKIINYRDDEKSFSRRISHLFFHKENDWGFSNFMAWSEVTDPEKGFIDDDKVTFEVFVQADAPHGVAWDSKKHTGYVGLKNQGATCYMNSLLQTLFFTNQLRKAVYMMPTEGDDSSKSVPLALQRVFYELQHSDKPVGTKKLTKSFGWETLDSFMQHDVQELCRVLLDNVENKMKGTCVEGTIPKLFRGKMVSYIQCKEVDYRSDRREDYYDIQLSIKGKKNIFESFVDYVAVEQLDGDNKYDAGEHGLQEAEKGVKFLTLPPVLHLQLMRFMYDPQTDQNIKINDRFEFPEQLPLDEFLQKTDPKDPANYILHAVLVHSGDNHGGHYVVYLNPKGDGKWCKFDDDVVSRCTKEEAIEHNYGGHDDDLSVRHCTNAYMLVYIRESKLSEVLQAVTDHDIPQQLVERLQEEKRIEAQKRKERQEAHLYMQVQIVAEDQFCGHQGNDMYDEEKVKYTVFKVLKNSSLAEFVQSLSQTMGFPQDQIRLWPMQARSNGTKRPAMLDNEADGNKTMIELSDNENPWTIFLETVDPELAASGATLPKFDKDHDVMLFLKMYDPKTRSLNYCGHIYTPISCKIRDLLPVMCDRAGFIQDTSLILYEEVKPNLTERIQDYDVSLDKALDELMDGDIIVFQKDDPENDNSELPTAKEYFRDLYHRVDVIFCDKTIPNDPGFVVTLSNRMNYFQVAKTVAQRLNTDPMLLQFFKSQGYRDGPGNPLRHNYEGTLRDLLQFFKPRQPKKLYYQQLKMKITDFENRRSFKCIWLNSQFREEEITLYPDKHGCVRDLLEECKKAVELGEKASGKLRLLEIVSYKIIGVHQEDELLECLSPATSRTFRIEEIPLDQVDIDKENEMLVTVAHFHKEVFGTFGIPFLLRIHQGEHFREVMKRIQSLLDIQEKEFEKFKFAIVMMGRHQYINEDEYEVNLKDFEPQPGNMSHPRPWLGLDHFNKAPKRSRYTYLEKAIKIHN
Measurement Notes: Inhibition of recombinant His6-tagged human USP7 expressed in insect expression system using ubiquitin-Rh110 as substrate preincubated for 30 mins followed by substrate addition measured after 180 mins by fluorescence assay
pIC50: −log10 of the molar value.
Measurement Type: pIC50

Use the examples below as a reference point.
>>> experimental_result("CC1=C(O)/C(=C/C(C)CCC/C(C)=C/CCC2=CC(=O)[C@@H](c3ccoc3)[C@@H]2O)OC1=O (mixture of isomers)")
5.55
>>> experimental_result("CC1=C(O)/C(=C/C(C)CC/C=C(/C)CCCc2coc(Cc3ccoc3)c2)OC1=O (mixture of isomers)")
5.46

P. CC1=C(O)/C(=C/C(C)CCC/C(C)=C/CCc2coc(Cc3ccoc3)c2)OC1=O (racemic)
Q. CC1=C(O)/C(=C/C(C)CC/C=C(/C)CCCC2=CC(=O)[C@@H](c3ccoc3)[C@@H]2O)OC1=O (mixture of isomers)
Kindly identify which of P and Q has the larger recorded pIC50 value. Your answer should be the label of the entry you select.
P
(P: 5.57, Q: 5.34)

The origin of these recorded values is ChEMBL document CHEMBL4190222.
